Examples of compounds with documented TD50 (Tremor) follow.
Test: Side effects and CNS/behaviour: tremor (TD50), sedative and m-cholinomimetic effects
Format: in vivo
Conditions: toxic dose causing tremor in 50 % of the animals
A number alone suffices; assume mg/kg.

# annotated cases, reported TD50 (Tremor) shown
Compound | TD50 (Tremor) [mg/kg]
Cc1nc2c(c(N)c1C)CCC2 [Verbindung 2] | 5
Cc1nc2c(c(N)c1C)CCC2 [Verbindung 18] | 9
Cc1nc2c(c(N)c1C)CCC2 [Verbindung 1] | 6
Cc1nc2c(c(N)c1C)CCC2 [Verbindung 3] | 7

// query GET /values?readout=TD50 (Tremor)&item= CCc1nc2c(c(N)c1C)CCC2 [Verbindung 29]
// result 22

// query Now the same for Cc1nc2c(c(N)c1C)CCC2 [Verbindung 16]
// result 10

---

Target: Acetylcholinesterase menschlicher Erythrozyten (Homo sapiens, UniProt P22303)
Construct: Acetylcholin-esteraseinhi-bierung bei menschlichen Erythrozyten; from tissue; host or cells: human erythrocytes
Sequence (P22303 other isoform, or with tags, fused parts or gaps): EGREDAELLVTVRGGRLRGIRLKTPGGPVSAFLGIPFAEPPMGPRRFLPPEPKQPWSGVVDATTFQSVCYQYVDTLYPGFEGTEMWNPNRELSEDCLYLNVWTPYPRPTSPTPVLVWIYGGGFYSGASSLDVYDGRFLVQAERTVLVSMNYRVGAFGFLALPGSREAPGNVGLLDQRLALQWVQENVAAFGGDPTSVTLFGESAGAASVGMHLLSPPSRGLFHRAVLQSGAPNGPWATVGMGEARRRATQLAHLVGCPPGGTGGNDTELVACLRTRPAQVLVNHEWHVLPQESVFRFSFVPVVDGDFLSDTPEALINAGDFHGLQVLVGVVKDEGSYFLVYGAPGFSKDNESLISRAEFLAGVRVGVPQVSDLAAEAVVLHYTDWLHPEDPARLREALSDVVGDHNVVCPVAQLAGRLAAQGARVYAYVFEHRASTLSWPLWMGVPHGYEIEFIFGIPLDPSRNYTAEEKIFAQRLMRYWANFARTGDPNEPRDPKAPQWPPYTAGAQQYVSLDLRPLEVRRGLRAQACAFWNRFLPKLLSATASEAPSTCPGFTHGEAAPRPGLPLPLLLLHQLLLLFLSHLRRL
Experiment: Acetylcholinesterase inhibition, spectrophotometric
Type: biochemical
Settings: read-out: Acetylcholinesteraseinhibierung bei menschlichen Erythrozyten IK, (Mol), human erythrocyte enzyme
Outcome Measure: Ki (µM)
Numbers only here, please. The scale is µM.

// query GET /values?readout=Ki&item= `Cc1nc2c(c(N)c1-c1ccccc1)CCC2`
// result 50

---

Assay: Side effects and CNS/behaviour: tremor (TD50), sedative and m-cholinomimetic effects
Type: in vivo
Conditions: in vivo, ED50 = dose blocking the effect of Skopolamin in 50 % of the animals (passive avoidance, mice); read-out: Verhältnis TD50 zu ED50
The label depends only on selectivity ratio: met if it is at least 4, not met if it is smaller.

These recorded examples may help you get a feel for the data.
Compound | Class
Nc1c2c(nc3c1CCC3)CCC2 [Verbindung 36] | met
CCc1nc2c(c(N)c1C)CCC2 [Verbindung 27] | met
Nc1c2c(nc3c1CCC3)CCCCC2 [Verbindung 38] | met
Cc1nc2c(c(N)c1-c1ccccc1)CCC2 [Verbindung 32] | not met
CCNc1c(C)c(C)nc2c1CCC2 [Verbindung 20] | not met

// query Please indicate if the recorded selectivity ratio for CCc1c(C)nc2c(c1N)CCC2 [Verbindung 21] meets or exceeds 4.
// result not met

// query Try the compound CCCc1c(C)nc2c(c1N)CCC2 [Verbindung 24]
// result not met

---

Assay: Side effects and CNS/behaviour: tremor (TD50), sedative and m-cholinomimetic effects
Assay type: in vivo
Details: ED50 = dose blocking the effect of Skopolamin in 50 % of the animals (passive avoidance, mice)
Outcome Measure: Verhältnis TD50 zu ED50

// query Verhältnis TD50 zu ED50 value for entry Cc1nc2c(c(N)c1C)CCC2 [Verbindung 2]
// result 12,5

---

# reported Verhältnis TD50 zu ED50; entries follow
Assay: Side effects and CNS/behaviour: tremor (TD50), sedative and m-cholinomimetic effects
Type: in vivo
Conditions: ED50 = dose blocking the effect of Skopolamin in 50 % of the animals (passive avoidance, mice)

Consider the following illustrative entries.
Compound | Assay Value
Cc1nc2c(c(N)c1C)CCC2 [Verbindung 14] | 8,2
Cc1nc2c(c(N)c1C)CCC2 [Verbindung 13] | 8,5

Consider now this further compound.
// query Could you tell me which Verhältnis TD50 zu ED50 is on file for Cc1nc2c(c(N)c1C)CCC2 [Verbindung 15] ?
// result 6,8

---

Assay: Side effects and CNS/behaviour: tremor (TD50), sedative and m-cholinomimetic effects
Type: in vivo
Conditions: toxic dose causing tremor in 50 % of the animals
Outcome Measure: TD50 (Tremor) (mg/kg)
Quick reminder: number only, in mg/kg, skip the unit.

// query What TD50 (Tremor) value was documented for this compound, Cc1nc2c(c(N)c1C)CCC2 [Verbindung 15] ?
// result 7

// query // same read-out, input: Cc1nc2c(c(N)c1C)CCC2 [Verbindung 5]
// result 9

// query What do we get for `CCc1c(C)nc2c(c1N)CCC2` ?
// result 12

---

Assay: Side effects and CNS/behaviour: tremor (TD50), sedative and m-cholinomimetic effects
Assay type: in vivo
Settings: ED50 = dose blocking the effect of Skopolamin in 50 % of the animals (passive avoidance, mice)
Quick reference for Verhältnis TD50 zu ED50 among some compounds

Record excerpt, results attached:
Compound | Verhältnis TD50 zu ED50
Cc1nc2c(c(N)c1C)CCC2 [Verbindung 10] | 7,5
Nc1c2c(nc3c1CCC3)CCCCC2 | 7,2
Cc1nc2c(c(N)c1C)CCC2 [Verbindung 16] | 6,6

// query Look up Verhältnis TD50 zu ED50: Cc1nc2c(c(N)c1C)CCC2 [Verbindung 17]
// result 7,1

// query Another compound to look at: `Cc1nc2c(c(N)c1-c1ccccc1)CCC2`
// result 2,4

// query Next compound: `Nc1c2c(nc3c1CCC3)CCC2`
// result 8,2
